- Target Entity: Gamma-aminobutyric acid receptor subunit alpha-3 (Rattus norvegicus) (UniProt P20236)
- Sequence (P20236 whole entry): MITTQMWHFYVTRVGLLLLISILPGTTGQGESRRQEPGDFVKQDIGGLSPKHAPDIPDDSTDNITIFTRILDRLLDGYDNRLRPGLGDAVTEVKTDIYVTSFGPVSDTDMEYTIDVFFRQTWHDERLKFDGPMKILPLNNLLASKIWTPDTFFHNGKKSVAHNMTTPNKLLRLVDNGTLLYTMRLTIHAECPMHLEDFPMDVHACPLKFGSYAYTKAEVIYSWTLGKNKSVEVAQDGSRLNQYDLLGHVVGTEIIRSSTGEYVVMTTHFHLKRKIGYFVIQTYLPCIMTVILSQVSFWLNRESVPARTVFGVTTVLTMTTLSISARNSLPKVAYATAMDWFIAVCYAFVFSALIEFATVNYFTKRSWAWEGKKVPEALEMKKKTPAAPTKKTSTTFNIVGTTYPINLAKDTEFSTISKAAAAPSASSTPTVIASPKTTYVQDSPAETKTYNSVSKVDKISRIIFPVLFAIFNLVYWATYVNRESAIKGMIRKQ
- Test Name: Agonist activity at rat GABAA alpha3beta3gamma2 receptor expressed in Xenopus oocytes assessed as stimulation of GABA-induced chloride current at 100 nM incubated 30 secs prior to GABA induction measured after 15 mins by two-electrode voltage clamp assay relative to control
- Type: cell-based
- Measurement Setup: Oocyte
Measured Metric: Activity (%)

>>> assay_value("C#Cc1ccc2c(c1)C(c1ccccc1F)=NCc1c(-c3nc(C(C)C)no3)ncn1-2")
226
>>> assay_value("C#Cc1ccc2c(c1)C(c1ccccc1F)=NCc1c(C(=O)NC)ncn1-2")
349
>>> assay_value("C#Cc1ccc2c(c1)C(c1ccccn1)=NCc1c(-c3nc(C(C)C)no3)ncn1-2")
143
>>> assay_value("C#Cc1ccc2c(c1)C(c1ccccc1)=NCc1c(C(=O)NC)ncn1-2")
412
>>> assay_value("C#Cc1ccc2c(c1)C(c1ccccn1)=NCc1c(C(=O)NC)ncn1-2")
163
>>> assay_value("C#Cc1ccc2c(c1)C(c1ccccc1)=NCc1c(-c3nc(C(C)C)no3)ncn1-2")
195
